Each recorded value in this set is attributed to the supplement of paper PMC11616607.

This section presents compounds with their documented drug sensitivity score values.
Tested on: OVCAR4
Test: drug sensitivity score (DSS) from 5-point dose-response viability curve (DSS (area-under-curve based score)); higher = more sensitive (stronger growth inhibition or killing); extreme values may be limits of the assay
Settings: exposure time: 72 h; concentration range: 5 concentrations over 10,000-fold range

Compound String: CC1(C)CCC(c2ccc(Cl)cc2)=C(CN2CCN(c3ccc(C(=O)NS(=O)(=O)c4ccc(N[C@H](CCN5CCOCC5)CSc5ccccc5)c(S(=O)(=O)C(F)(F)F)c4)cc3)CC2)C1
drug sensitivity score: 2
--
Compound String: CC[C@@H]1[C@H](F)C(=O)N[C@@H]1COc1nccc2cc(C(N)=O)c(OC)cc12
drug sensitivity score: 0.4
--
Compound String: C[C@H]1O[C@@H](O[C@H]2[C@@H](O)C[C@H](O[C@H]3[C@@H](O)C[C@H](O[C@H]4CC[C@@]5(C)[C@H](CC[C@@H]6[C@@H]5C[C@@H](O)[C@]5(C)[C@@H](C7=CC(=O)OC7)CC[C@]65O)C4)O[C@@H]3C)O[C@@H]2C)C[C@H](O)[C@@H]1O
drug sensitivity score: 9.6
--
Compound String: CN(C)CCCOc1ccc(-c2ccc3ncc4c(c3c2)n(C2CCOCC2)c(=O)n4C)cn1
drug sensitivity score: 0
--
Compound String: CC(C)c1c(C(=O)Nc2ccccc2)c(-c2ccccc2)c(-c2ccc(F)cc2)n1CC[C@@H](O)C[C@@H](O)CC(=O)O
drug sensitivity score: 0
--
Compound String: Cc1c(F)cc(C(=O)NC2CC2)cc1-c1ccc(C(=O)NCC(C)(C)C)cn1
drug sensitivity score: 0
--
Compound String: CC(=O)O[C@@]12CO[C@@H]1C[C@H](O)[C@@]1(C)C(=O)[C@H](O)C3=C(C)[C@@H](OC(=O)[C@H](O)[C@@H](NC(=O)OC(C)(C)C)c4ccccc4)C[C@@](O)([C@@H](OC(=O)c4ccccc4)[C@H]21)C3(C)C
drug sensitivity score: 8.1
--
Compound String: CC(C)c1cc(-c2n[nH]c(=O)n2-c2ccc3c(ccn3C)c2)c(O)cc1O
drug sensitivity score: 11.3
--
Compound String: COc1cc2c(NC3CCN(C(C)C)CC3)nc(N3CCC(F)(F)CC3)nc2cc1OCCCN1CCCC1
drug sensitivity score: 0
--
Compound String: CNC(=O)c1ccccc1Sc1ccc2c(/C=C/c3ccccn3)n[nH]c2c1
drug sensitivity score: 0.2
--
Compound String: CC[C@@H](C(=O)[C@@H](C)[C@@H](O)[C@H](C)[C@@H]1O[C@@H]([C@@H](CC)C(=O)O)CC[C@@H]1C)[C@H]1O[C@]2(C=C[C@@H](O)[C@]3(CC[C@@](C)([C@H]4CC[C@](O)(CC)[C@H](C)O4)O3)O2)[C@H](C)C[C@@H]1C
drug sensitivity score: 14.2
--
Compound String: N#CC1(c2ccc(NC(=O)c3cccnc3NCc3ccncc3)cc2)CCCC1
drug sensitivity score: 0
--
Compound String: CC[C@H](C)C(=O)O[C@H]1C[C@H](O)C=C2C=C[C@H](C)[C@H](CC[C@@H](O)C[C@@H](O)CC(=O)O)[C@H]21
drug sensitivity score: 0
--
Compound String: CNCc1ccc(-c2[nH]c3cc(F)cc4c3c2CCNC4=O)cc1
drug sensitivity score: 0
--
Compound String: CC(C)C[C@H](NC(=O)[C@H](Cc1ccccc1)NC(=O)c1cnccn1)B(O)O
drug sensitivity score: 24.6
--
Compound String: Cc1cc(F)c(C(=O)Nc2cccc(-c3nncn3C(C)C)n2)cc1-n1cnc(C2CC2)c1
drug sensitivity score: 0
--
Compound String: N[C@@H]1CCCN(c2c(/C=C3\SC(=O)NC3=O)cccc2-c2ccccc2)C1
drug sensitivity score: 0
--
Compound String: Nc1cc(COc2c(Cl)cc(C[C@H](N)C(=O)O)cc2Cl)c2oc(-c3ccccc3)nc2c1
drug sensitivity score: 0.2
--
Compound String: CCCS(=O)(=O)Nc1ccc(F)c(C(=O)c2c[nH]c3ncc(-c4ccc(Cl)cc4)cc23)c1F
drug sensitivity score: 0
--
Compound String: Cc1ccc(-c2cc(C(F)(F)F)nn2-c2ccc(S(N)(=O)=O)cc2)cc1
drug sensitivity score: 0
--
Compound String: COC(=O)c1ccc([C@H]2c3[nH]c4ccccc4c3C[C@H](C(=O)OC)N2C(=O)CCl)cc1
drug sensitivity score: 0
--
Compound String: CCn1cc(-c2ccnc3[nH]c(-c4cccc(CN(C)C)c4)cc23)c(-c2ccc(NC(=O)N(C)C)cc2)n1
drug sensitivity score: 2.9
--
Compound String: Nc1ncn([C@@H]2O[C@H](CO)[C@@H](O)[C@H]2O)c(=O)n1
drug sensitivity score: 1.6

----------
System: OVCAR4
Assay: drug sensitivity score (DSS) from 5-point dose-response viability curve (DSS (area-under-curve based score)); higher = more sensitive (stronger growth inhibition or killing); extreme values may be limits of the assay
Details: exposure time: 72 h; concentration range: 5 concentrations over 10,000-fold range
Tick T if drug sensitivity score is 2 or greater. Tick F if drug sensitivity score is less than 2.

Molecule: CO[C@H]1C(=O)[C@]2(C)[C@@H](OC)C[C@H]3OC[C@@]3(OC(C)=O)[C@H]2[C@H](OC(=O)c2ccccc2)[C@]2(O)C[C@H](OC(=O)[C@H](O)[C@@H](NC(=O)OC(C)(C)C)c3ccccc3)C(C)=C1C2(C)C [Cabazitaxel]
System Name: OVCAR4
Class Name: T
--
Molecule: O=C(c1cccc(Cl)c1F)N1CCN(Cc2cccc(Nc3nccs3)n2)CC1 [MK-8745]
System Name: OVCAR4
Class Name: F
--
Molecule: COCCOc1cnc2ccn([C@H](C)c3nnc4c(F)cc(-c5cnn(C)c5)cn34)c(=O)c2c1 [AMG-337]
System Name: OVCAR4
Class Name: F
--
Molecule: CN1CCN(c2ccc3nc(-c4c(N)c5c(F)cccc5[nH]c4=O)[nH]c3c2)CC1 [Dovitinib]
System Name: OVCAR4
Class Name: F
--
Molecule: O=C(CCNC(=O)c1ccc(OC(F)(F)F)cc1)N[C@@H]1CCCc2ccccc21 [ML390]
System Name: OVCAR4
Class Name: F
--
Molecule: COc1cc(NS(C)(=O)=O)ccc1Nc1c2ccccc2nc2ccccc12 [Amsacrine]
System Name: OVCAR4
Class Name: F
--
Molecule: Oc1ccc2c(c1)CC[C@H](c1ccccc1)[C@@H]2c1ccc(OCCN2CCCC2)cc1 [Lasofoxifene]
System Name: OVCAR4
Class Name: F
--
Molecule: Cc1sc2c(c1C)C(c1ccc(Cl)cc1)=N[C@@H](CC(=O)Nc1ccc(OCCOCCOCCOCCNc3cccc4c3C(=O)N(C3CCC(=O)NC3=O)C4=O)cc1)c1nnc(C)n1-2 (stereo partly specified) [ARV-825]
System Name: OVCAR4
Class Name: T
--
Molecule: CO[C@H]1C[C@@H]2CC[C@@H](C)[C@@](O)(O2)C(=O)C(=O)N2CCCC[C@H]2C(=O)O[C@H]([C@H](C)C[C@@H]2CC[C@@H](OP(C)(C)=O)[C@H](OC)C2)CC(=O)[C@H](C)/C=C(\C)[C@@H](O)[C@@H](OC)C(=O)[C@H](C)C[C@H](C)/C=C/C=C/C=C/1C [Ridaforolimus]
System Name: OVCAR4
Class Name: T
--
Molecule: Cn1ncnc1[C@H]1c2n[nH]c(=O)c3cc(F)cc(c23)N[C@@H]1c1ccc(F)cc1 [Talazoparib]
System Name: OVCAR4
Class Name: F

----------
Test system: COV362
Assay: drug sensitivity score (DSS) from 5-point dose-response viability curve (DSS (area-under-curve based score)); higher = more sensitive (stronger growth inhibition or killing); extreme values may be limits of the assay
Details: exposure time: 72 h; concentration range: 5 concentrations over 10,000-fold range
Readings of drug sensitivity score for the listed compounds

Compound String: CCN(CC)CCNC(=O)c1c(C)[nH]c(/C=C2\C(=O)Nc3ccc(-c4csc(-c5ccccc5)n4)cc32)c1C
drug sensitivity score: 0.5
--
Compound String: CC(C)(C)c1cc(NC(=O)Nc2ccc(-c3cn4c(n3)sc3cc(OCCN5CCOCC5)ccc34)cc2)no1
drug sensitivity score: 0
--
Compound String: C[C@]12C=CC(=O)C=C1CC[C@@H]1[C@@H]2[C@@H](O)C[C@@]2(C)[C@H]1CC[C@]2(O)C(=O)CO
drug sensitivity score: 0
--
Compound String: N#CCNC(=O)c1ccc(-c2ccnc(Nc3ccc(N4CCOCC4)cc3)n2)cc1
drug sensitivity score: 1

----------
Catalogue of drug sensitivity score values
System: HOSE2C
Experiment: drug sensitivity score (DSS) from 5-point dose-response viability curve (DSS (area-under-curve based score)); higher = more sensitive (stronger growth inhibition or killing); extreme values may be limits of the assay
Settings: exposure time: 72 h; concentration range: 5 concentrations over 10,000-fold range

Compound: CCOc1cc2ncc(C#N)c(Nc3ccc(OCc4ccccn4)c(Cl)c3)c2cc1NC(=O)/C=C/CN(C)C
drug sensitivity score: 1
//
Compound: C/C(=C\c1csc(C)n1)[C@@H]1C[C@@H]2O[C@]2(C)CCC[C@H](C)[C@H](O)[C@@H](C)C(=O)C(C)(C)[C@@H](O)CC(=O)N1 [Ixabepilone]
drug sensitivity score: 2
//
Compound: COc1cc(Nc2ncc3c(n2)-c2ccc(Cl)cc2C(c2c(F)cccc2OC)=NC3)ccc1C(=O)O
drug sensitivity score: 5.4
//
Compound: CN1CCN(c2ccc(C(=O)Nc3n[nH]c4ccc(Cc5cc(F)cc(F)c5)cc34)c(NC3CCOCC3)c2)CC1
drug sensitivity score: 0
